The reader will find reported Efficacy in % of the untreated control values listed item by item below.
Tested on: Cochliobolus miyabeanus
Assay: Activity against brown spot of rice caused by Cochliobolus miyabeanus, protective application
Format: in vivo
Conditions: individual active compound, 16 ppm in the spray liquor; rice seedlings Tai-Nong 67, protective spray, rated after six days
Measurement name: Efficacy in % of the untreated control (%)

{"columns": ["Structure string", "Number"],
 "data": [
  ["C[C@H](Nc1c(-c2c(F)cc(F)cc2F)c(Cl)nc2ncnn12)C(F)(F)F", 41],
  ["CC1CCN(c2c(-c3c(F)cc(F)cc3F)c(Cl)nc3ncnn23)CC1", 17],
  ["O=[N+]([O-])c1cc(C(F)(F)F)c(Cl)c([N+](=O)[O-])c1Nc1ncc(C(F)(F)F)cc1Cl", 17],
  ["CC1CCN(c2c(-c3c(F)cccc3Cl)c(Cl)nc3ncnn23)CC1", 53]
]}

// provenance: patent US20060264447A1
